Let's look at some compounds and their measured EC50.
Test system: MG13-hCCR5 cells, FAP-MG2p fluorogen binding, flow cytometry MCF
Experiment notes: FAP-tagged hCCR5 fluorogen binding interference – cell-based, FAP-tagged human CCR5, Powderset5, counter-screen for beta2AR agonist project, dose response (AID 651913)
Assay readout: EC50

{"Compound": "CN(CC(=O)N1CCN(c2ccccn2)CC1)S(=O)(=O)c1ccc(Cl)cc1", "Assay readout": "EC50", "Assay result": "10.8 nM"}
{"Compound": "CN(CC(=O)N1CCN(c2ccc(F)cc2)CC1)S(=O)(=O)c1cc(Cl)ccc1Cl", "Assay readout": "EC50", "Assay result": "54.5 nM"}
{"Compound": "CN(CC(=O)N1CCN(c2ccc(F)cc2)CC1)S(=O)(=O)c1ccc(Br)cc1", "Assay readout": "EC50", "Assay result": "1030 nM"}
{"Compound": "CCC1CCCCN1S(=O)(=O)c1ccc(NC(C)=O)cc1 (stereo not given)", "Assay readout": "EC50", "Assay result": "455 nM"}
{"Compound": "O=C(C1CCCN1S(=O)(=O)c1ccc(Cl)cc1)N1CCN(c2ccccn2)CC1 (stereo not given)", "Assay readout": "EC50", "Assay result": "257 nM"}
